Please provide measured caspase activation for the entries that follow.
assay: caspase-3/7 activation in A1-dependent Mel501 cells, dose response, A1 (Bcl2A1) inhibitor project, cell-based, human Mel501, dry powder (AID 488934); details: Mel501 melanoma cells, caspase-3/7 Glo luminescence, 6 h; at 150 µM (top of the series)
Results filed as inconclusive are left out. The source made the active and inactive calls.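 How the source made its calls: active means compounds raising caspase signal whose fitted AC50 lies at or below the top valid dose tested; inconclusive means flat curve at 30 to 70 percent activity, or a poor fit; inactive means the rest.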

## Input Which caspase activation reading was recorded for the compound Nc1nc(F)nc2c1ncn2[C@@H]1O[C@H](CO)[C@@H](O)[C@H]1O ?
## Output 0.438% (inactive)

## Input Now consider COc1cccc(C(=O)C(C#N)=C(SC)SC)c1 .
## Output -0.394% (inactive)

## Input Now consider O=C(CCl)N=c1sccn1Cc1ccccc1Cl .
## Output 2.16% (inactive)

## Input Now consider O=C(Oc1cccc(/C=N/Nc2nc(Nc3ccccc3)nc(N3CCOCC3)n2)c1)c1ccco1 .
## Output 0.28% (inactive)

## Input Now consider C/C1=C/C(=O)O[C@@H]2C[C@@H](CC[C@H](C)/C=C\CC1)O[C@@](O)(C1CSC(=O)N1)C2 (stereo partly specified) .
## Output 0.0337% (inactive)

## Input Now consider CCc1nnc(NC(=O)c2nc(S(=O)(=O)Cc3ccccc3)ncc2Cl)s1 .
## Output -0.521% (inactive)

## Input Now consider CCc1cc2c(=O)c(-c3cnn(-c4ccccc4)c3)c(C)oc2cc1OCC(=O)Nc1cccc(C)c1 .
## Output 0.716% (inactive)

## Input Now consider C=C1[C@@H](C)[C@H]2[C@H](Cc3ccccc3)NC(=O)[C@]23[C@H](OC(C)=O)/C=C/[C@](C)(O)C(=O)[C@@H](C)C/C=C/[C@H]3[C@@H]1O .
## Output 0.757% (inactive)

## Input Now consider CCOC(=O)CSC1=N/C(=C/c2ccc(-n3cncn3)cc2)C(=O)N1C(C)=O .
## Output 0.822% (inactive)

## Input Now consider Cc1ccc(CS(=O)(=O)c2ncc(Cl)c(C(=O)Nc3nnc(C(C)C)s3)n2)cc1 .
## Output -1.79% (inactive)

## Input Now consider CC(C)(C)n1nc(-c2ccc(Cl)cc2)c2c(N)ncnc21 .
## Output 2.25% (inactive)

## Input Now consider Cn1c(=NC(=O)CCl)sc2ccccc21 .
## Output 0.601% (inactive)

## Input Now consider COc1cc(/C=C(/C#N)c2nc3ccccc3[nH]2)ccc1OCC(=O)Nc1ccccc1C(C)C .
## Output 1.07% (inactive)

## Input Now consider CCSc1nnc(NC(=O)c2nc(S(=O)(=O)Cc3ccc(F)cc3)ncc2Cl)s1 .
## Output -2.12% (inactive)

## Input Now consider C=C1[C@@H](C)[C@H]2[C@H](Cc3ccccc3)NC(=O)[C@]23OC(=O)/C=C\[C@H](O)CCC[C@@H](C)C/C=C/[C@H]3[C@@H]1O .
## Output 0.77% (inactive)

## Input Now consider Cc1cccc(CS(=O)(=O)c2ncc(Cl)c(C(=O)Nc3nnc(C(C)C)s3)n2)c1 .
## Output -1.69% (inactive)

Sourced from PubChem BioAssay AID488934
